target: T1, cynomolgus monkey C-MET His tag, monomeric (cynomolgus monkey, UniProt A0M8R7 25-932 (Papio anubis entry)); test: SPR Biacore, IgG captured, monomeric C-MET-His analyte
T1 construct: also called monomeric cyno C-MET; cyCMET
T1 sequence (A0M8R7 25-932 S170N/I621T): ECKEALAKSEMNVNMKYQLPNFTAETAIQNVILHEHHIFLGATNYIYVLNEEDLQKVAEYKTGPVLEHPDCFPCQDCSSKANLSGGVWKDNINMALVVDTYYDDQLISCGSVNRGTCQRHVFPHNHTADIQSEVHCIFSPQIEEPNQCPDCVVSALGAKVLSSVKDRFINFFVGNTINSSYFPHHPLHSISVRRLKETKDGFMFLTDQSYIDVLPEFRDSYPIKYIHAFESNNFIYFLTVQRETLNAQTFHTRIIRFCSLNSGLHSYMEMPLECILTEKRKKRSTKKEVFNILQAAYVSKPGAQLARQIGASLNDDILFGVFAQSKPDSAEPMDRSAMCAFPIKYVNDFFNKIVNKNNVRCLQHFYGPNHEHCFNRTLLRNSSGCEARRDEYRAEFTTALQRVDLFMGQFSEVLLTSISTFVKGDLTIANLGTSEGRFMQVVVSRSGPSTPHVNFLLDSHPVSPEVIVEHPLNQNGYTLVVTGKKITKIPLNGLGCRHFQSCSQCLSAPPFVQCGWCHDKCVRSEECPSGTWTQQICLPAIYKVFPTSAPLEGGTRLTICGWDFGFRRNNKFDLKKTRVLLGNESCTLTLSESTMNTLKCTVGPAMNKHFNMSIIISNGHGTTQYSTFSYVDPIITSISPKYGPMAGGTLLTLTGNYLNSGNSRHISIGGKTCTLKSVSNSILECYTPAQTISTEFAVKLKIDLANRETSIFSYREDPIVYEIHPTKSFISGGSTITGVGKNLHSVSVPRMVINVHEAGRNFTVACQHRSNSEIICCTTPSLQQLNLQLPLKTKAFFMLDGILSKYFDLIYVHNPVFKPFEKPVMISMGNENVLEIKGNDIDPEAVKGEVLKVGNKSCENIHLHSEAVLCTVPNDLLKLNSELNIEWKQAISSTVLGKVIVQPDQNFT
This listing pairs binders with measured koff.

- BINDER: "MH12 (antibody, IgG4, V domains shown) VH: QVQLVQSGAEVKKPGASVKVSCKASGYTFTSYAMHWVRQAPGQGLEWMGWINPSGGSTSYAQKFQGRVTMTRDTSTSTVYMELSSLRSEDTAVYYCARQEITTEFDYWGQGTLVTVSS VL: EIVLTQSPGTLSLSPGERATLSCRASQSVSSYAQSYLHWYQQKPGQAPRLLIYRGSTRETGIPDRFSGSGSGTDFTLTISRLEPEDFAVYYCQQYGSSPLTFGGGTKVEIK"
  koff: "0.00043 s⁻¹"
- BINDER: "08B12 (antibody, IgG4, V domains shown) VH: QVQLVQSGAEVKKPGASVKVSCKASGYIFTAYSMHWVRQAPGQGLEWMGWIKPNNGSTNYAQKFQGRVTMTRDTSTSTVYMELSSLRSEDTAVYYCARTEITTEFDYWGQGTLVTVSS VL: EIVLTQSPGTLSLSPGERATLSCRASQSVDSYANSYLHWYQQKPGQAPRLLIYRGSTRETGIPDRFSGSGSGTDFTLTISRLEPEDFAVYYCQQSKSDPLTFGGGTKVEIK"
  koff: "0.00043 s⁻¹"
- BINDER: "04F09 (antibody, IgG4, V domains shown) VH: QVQLVQSGAEVKKPGASVKVSCKASGYIFTSYSMHWVRQAPGQGLEWMGWINPSNGLANYAQKFQGRVTMTRDTSTSTVYMELSSLRSEDTAVYYCARQEITTEFDIWGQGTLVTVSS VL: EIVLTQSPGTLSLSPGERATLSCRASQSVESYAQSYLHWYQQKPGQAPRLLIYRGSTRESGIPDRFSGSGSGTDFTLTISRLEPEDFAVYYCQQSKSDPLTFGGGTKVEIK"
  koff: "5.6e-05 s⁻¹"
- BINDER: "MH7-1 (antibody, human IgG4, V domains shown) VH: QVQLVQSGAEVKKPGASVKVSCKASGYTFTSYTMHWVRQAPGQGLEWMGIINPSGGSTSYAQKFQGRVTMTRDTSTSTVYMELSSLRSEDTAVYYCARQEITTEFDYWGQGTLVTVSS VL: EIVLTQSPGTLSLSPGERATLSCRASQSVSSYANSYLHWYQQKPGQAPRLLIYRGSTRETGIPDRFSGSGSGTDFTLTISRLEPEDFAVYYCQQSKSEPLTFGGGTKVEIK"
  koff: "0.000198 s⁻¹"
- BINDER: "MH4 (antibody, IgG4, V domains shown) VH: QVQLVQSGAEVKKPGASVKVSCKASGYTFTSYTMHWVRQAPGQGLEWMGWINPSGGSTSYAQKFQGRVTMTRDTSTSTVYMELSSLRSEDTAVYYCARQEITTEFDYWGQGTLVTVSS VL: EIVLTQSPGTLSLSPGERATLSCRASQSVSSYANSYLHWYQQKPGQAPRLLIYRGSTRESGIPDRFSGSGSGTDFTLTISRLEPEDFAVYYCQQSKSEPLTFGGGTKVEIK"
  koff: "4.9e-05 s⁻¹"
- BINDER: "07C10 (antibody, IgG4, V domains shown) VH: QVQLVQSGAEVKKPGASVKVSCKASGYIFTAYSMHWVRQAPGQGLEWMGIIKPSNGSTNYAQKFQGRVTMTRDTSTSTVYMELSSLRSEDTAVYYCARAEITTEFDYWGQGTLVTVSS VL: EIVLTQSPGTLSLSPGERATLSCRASQSVESYAQSYLHWYQQKPGQAPRLLIYRGSTRESGIPDRFSGSGSGTDFTLTISRLEPEDFAVYYCQQSKEEPLTFGGGTKVEIK"
  koff: "0.00021 s⁻¹"
- BINDER: "MH7-2 (antibody, human IgG4, V domains shown) VH: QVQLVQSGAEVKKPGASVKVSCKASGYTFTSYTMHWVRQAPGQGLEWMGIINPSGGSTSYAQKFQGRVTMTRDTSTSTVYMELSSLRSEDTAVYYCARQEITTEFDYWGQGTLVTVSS VL: EIVLTQSPGTLSLSPGERATLSCRASQSVSSYANSYLHWYQQKPGQAPRLLIYRGSTRETGIPDRFSGSGSGTDFTLTISRLEPEDFAVYYCQQSKESPLTFGGGTKVEIK"
  koff: "0.000159 s⁻¹"
- BINDER: "MH5 (antibody, IgG4, V domains shown) VH: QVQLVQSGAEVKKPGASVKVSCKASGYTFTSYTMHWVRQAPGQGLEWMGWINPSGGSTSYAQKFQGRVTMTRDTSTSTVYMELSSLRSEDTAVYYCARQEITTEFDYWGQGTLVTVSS VL: EIVLTQSPGTLSLSPGERATLSCRASQSVSSYAQSYLHWYQQKPGQAPRLLIYRGSTRETGIPDRFSGSGSGTDFTLTISRLEPEDFAVYYCQQSGSSPLTFGGGTKVEIK"
  koff: "0.00021 s⁻¹"
- BINDER: "MH3 (antibody, IgG4, V domains shown, also called MH03) VH: QVQLVQSGAEVKKPGASVKVSCKASGYTFTSYTMHWVRQAPGQGLEWMGWINPNGGSTSYAQKFQGRVTMTRDTSTSTVYMELSSLRSEDTAVYYCARQEITTEFDYWGQGTLVTVSS VL: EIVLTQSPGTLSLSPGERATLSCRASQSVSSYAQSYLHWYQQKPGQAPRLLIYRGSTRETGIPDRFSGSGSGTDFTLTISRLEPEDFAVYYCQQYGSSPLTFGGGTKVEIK"
  koff: "0.00062 s⁻¹"
- BINDER: "MH7 (antibody, human IgG4, V domains shown) VH: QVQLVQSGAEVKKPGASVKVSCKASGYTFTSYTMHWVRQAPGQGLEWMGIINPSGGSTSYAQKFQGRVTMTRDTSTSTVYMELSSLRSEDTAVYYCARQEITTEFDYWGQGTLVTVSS VL: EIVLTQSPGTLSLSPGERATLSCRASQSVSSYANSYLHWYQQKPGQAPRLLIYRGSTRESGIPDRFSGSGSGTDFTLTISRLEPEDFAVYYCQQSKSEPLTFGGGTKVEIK"
  koff: "5.2e-05 s⁻¹"
